All values here come from patent US20130266649A1.

Test: FTIH study: single dose (Day 1) pharmacokinetics of Compound tablets
Assay type: in vivo
Details: plasma, oral; human, Day 1, fasting, 8.0 mg loading dose, median, N 7; read-out: Tmax

# Compound, Quantity unit, Tmax
data = [
    ("CC(=O)Nc1cccc(-n2c(=O)n(C3CC3)c(=O)c3c(Nc4ccc(I)cc4F)n(C)c(=O)c(C)c32)c1 [Compound]", "h", 3),
]

====

Assay: in vivo
Conditions: female, Sprague-Dawley, rat, in vivo, po, 0.125 mg/m2
Readout: AUC

# Compound, Readout, Recorded measurement
rows = [
    ("CC(=O)Nc1cccc(-n2c(=O)n(C3CC3)c(=O)c3c(Nc4ccc(I)cc4F)n(C)c(=O)c(C)c32)c1 [Compound]", "AUC", "102 ng·h/mL"),
]
